The reported measurements were obtained from ChEMBL document CHEMBL1146387.

Test system: Enterococcus faecium
Assay: Antibacterial activity against vancomycin-resistant Enterococcus faecium VRA
Assay type: functional
PROPERTY: MIC (µg/mL)
Note: unit µg/mL is implicit; provide only the numeric part.

MOLECULE	ASSAYED_TARGET	UNITS_OF_MEASURE	MIC
COc1ccccc1C(=O)OCCc1c(C(c2cccc(Br)c2)c2c(O)cc(C)oc2=O)[nH]c2ccccc12 (centres undefined)	Enterococcus faecium	µg/mL	64

Moving on to another molecule below.
Quick note, MIC for O=C(OCCc1c(C(c2ccccc2)c2c(O)c3ccccc3oc2=O)[nH]c2ccccc12)c1ccccc1 (centres undefined) landed at 16

----------
Tested on: Enterococcus faecium
Assay: Antibacterial activity against vancomycin-resistant Enterococcus faecium VRA
Type: functional
PROPERTY: MIC

Record excerpt, results attached:
MOLECULE	MIC
Cn1c(=O)c(C(c2ccc(C(F)(F)F)cc2)c2[nH]c3ccccc3c2CCOC(=O)c2ccccc2)c(O)c2ccccc21 (centres undefined)	8 µg/mL
Cn1c(=O)c(C(c2cccc(Br)c2)c2[nH]c3ccccc3c2CCOC(=O)Cc2ccccc2)c(O)c2ccccc21 (centres undefined)	> 128 µg/mL
Cn1c(=O)c(C(c2ccc(OC(F)(F)F)cc2)c2[nH]c3ccccc3c2CCOC(=O)c2ccccc2)c(O)c2ccccc21 (centres undefined)	> 128 µg/mL
COc1ccccc1C(=O)OCCc1c(C(c2cccc(Br)c2)c2c(O)c3ccccc3oc2=O)[nH]c2ccccc12 (centres undefined)	8 µg/mL
CC(=O)NCCc1c(C(c2cccc(Br)c2)c2c(O)c3ccccc3n(C)c2=O)[nH]c2ccccc12 (centres undefined)	> 128 µg/mL

Note to self: MIC recorded for O=C(OCCc1c(C(c2ccc(OC(F)(F)F)cc2)c2c(O)c3ccccc3oc2=O)[nH]c2ccccc12)c1ccccc1 (centres undefined) was 0.5 µg/mL

So, CN(C(=O)NCCc1c(C(c2ccc(C(F)(F)F)cc2)c2c(O)c3ccccc3n(C)c2=O)[nH]c2ccccc12)c1ccccc1 (centres undefined) ? Its MIC was 1 µg/mL

MIC reading for O=C(OCCc1c(C(c2ccc(Br)cc2)c2c(O)c3ccccc3oc2=O)[nH]c2ccccc12)c1ccccc1 (centres undefined) : 2 µg/mL

Memo: Cn1c(=O)c(C(c2ccc(OC(F)(F)F)cc2)c2[nH]c3ccccc3c2CCNC(=O)c2ccccc2)c(O)c2ccccc21 (centres undefined) , reported MIC: > 128 µg/mL
